- Test system: Hepatotoxicity
- Experiment: FDA HLAED, lactate dehydrogenase (LDH) increase
- Condition: human
Assay Endpoint: LDH Increase - Number of Reports

Examples from the recorded data:
CCCCCc1cc(O)c2c(c1)OC(C)(C)[C@@H]1CCC(C)=C[C@@H]21 : < 4
CC(=O)NO [ACETOHYDROXAMIC ACID] : < 4
CC(CCc1ccccc1)NCC(O)c1ccc(O)c(C(N)=O)c1 (stereo not given) : < 4
Cc1cc2c(s1)Nc1ccccc1N=C2N1CCN(C)CC1 : >= 4
CCCCC[C@H](O)/C=C/[C@H]1[C@H](O)CC(=O)[C@@H]1CCCCCCC(=O)O : < 4
O=c1[nH]c(=O)n([C@H]2C[C@H](O)[C@@H](CO)O2)cc1C(F)(F)F : < 4
CC(=O)Nc1ccc(O)cc1 : >= 4
CCC(C)n1ncn(-c2ccc(N3CCN(c4ccc(OCC5COC(Cn6cncn6)(c6ccc(Cl)cc6Cl)O5)cc4)CC3)cc2)c1=O (stereo not given) : >= 4

Need LDH Increase - Number of Reports of COC(=O)C1=C(C)NC(C)=C(C(=O)OCC(C)C)C1c1ccccc1[N+](=O)[O-] (stereo not given) , thanks.
< 4

Which LDH Increase - Number of Reports value belongs to C[C@]12CC[C@H]3[C@@H](CCC4=CC(=O)CC[C@@]43C)[C@@H]1CC[C@@H]2OC(=O)Cc1ccccc1 [TESTOSTERONE PHENYLACETATE] ?
< 4

Fill in the blank: the reported LDH Increase - Number of Reports of COC(=O)C1=C(C)NC(C)=C(C(=O)OC)C1c1ccccc1[N+](=O)[O-] is ____.
< 4

Would you kindly share the measured LDH Increase - Number of Reports for CCCC(=O)Nc1ccc(OCC(O)CNC(C)C)c(C(C)=O)c1 (stereo not given) ?
>= 4

Which measured LDH Increase - Number of Reports value corresponds to CC1(C)NC(=O)N(c2ccc([N+](=O)[O-])c(C(F)(F)F)c2)C1=O [NILUTAMIDE] ?
< 4

Need LDH Increase - Number of Reports of CCn1cc(C(=O)O)c(=O)c2cc(F)c(N3CCNCC3)nc21 , thanks.
< 4

====

- Test system: Hepatotoxicity
- Experiment: FDA HLAED, serum glutamic oxaloacetic transaminase (SGOT) increase
- Condition: human
Assay Endpoint: SGOT Increase - Activity Score

Below: 10 compounds and their reported SGOT Increase - Activity Score.
N=C(N)NCC1COC2(CCCCC2)O1 (stereo not given) : Inactive
Cn1cnc([N+](=O)[O-])c1Sc1ncnc2nc[nH]c12 : Active
CC(C)NCC(O)COc1ccc(CC(N)=O)cc1 (stereo not given) : Inactive
CC(C)(C(=O)O)c1ccc(C(O)CCCN2CCC(C(O)(c3ccccc3)c3ccccc3)CC2)cc1 (stereo not given) [FEXOFENADINE] : Inactive
C[C@@H](CN1CC(=O)NC(=O)C1)N1CC(=O)NC(=O)C1 : Inactive
CC1=C(CC(=O)O)c2cc(F)ccc2/C1=C\c1ccc([S+](C)[O-])cc1 (stereo not given) : Inactive
COc1ccc2cc([C@H](C)C(=O)O)ccc2c1 : Inactive
CCOC(=O)c1cncn1[C@H](C)c1ccccc1 [ETOMIDATE] : Inactive
CCCCC(=O)O[C@H]1CC[C@H]2[C@@H]3CCc4cc(O)ccc4[C@H]3CC[C@]12C [ESTRADIOL VALERATE] : Inactive
COc1ccc(C(=O)Nc2ccccc2CCC2CCCCN2C)cc1 (stereo not given) [ENCAINIDE] : Active

Could you now look at the following compound, please?
Consider the compound Cc1c(OCC(F)(F)F)ccnc1C[S+]([O-])c1nc2ccccc2[nH]1 (stereo not given) and give its measured SGOT Increase - Activity Score.
Inactive

====

- Test system: Hepatotoxicity
- Experiment: FDA HLAED, gamma-glutamyl transferase (GGT) increase
- Condition: human
Assay Endpoint: GGT Increase - Number of Reports

CCc1cccc2c3c([nH]c12)C(CC)(CC(=O)O)OCC3 (stereo not given) [ETODOLAC] : >= 4
O=C1C(O)=C([C@H]2CC[C@H](c3ccc(Cl)cc3)CC2)C(=O)c2ccccc21 [ATOVAQUONE] : < 4
CO[C@]12CC[C@@]3(C[C@@H]1[C@](C)(O)C(C)(C)C)[C@H]1Cc4ccc(O)c5c4[C@@]3(CCN1CC1CC1)[C@H]2O5 [BUPRENORPHINE] : < 4
CC(NC(C)(C)C)C(=O)c1cccc(Cl)c1 (stereo not given) [BUPROPION] : < 4

Below: the item to evaluate.
# input molecule: NCCCC[C@H](N[C@@H](CCc1ccccc1)C(=O)O)C(=O)N1CCC[C@H]1C(=O)O [LISINOPRIL ANHYDROUS] ; wanted: its GGT Increase - Number of Reports
>= 4

====

- System: Hepatotoxicity
- Experiment: FDA HLAED, serum glutamic oxaloacetic transaminase (SGOT) increase
- Condition: human
SGOT Increase - Index Value values for the molecules below.
Just the number, please, no unit after it.

Examples from the recorded data:
O=C(O)Cc1ccccc1Nc1c(Cl)cccc1Cl [DICLOFENAC] : 11.4
Brc1c(NC2=NCCN2)ccc2nccnc12 [BRIMONIDINE] : 1.1
CC[C@H]1OC(=O)[C@H](C)[C@@H](O[C@H]2C[C@@](C)(OC)[C@@H](O)[C@H](C)O2)[C@H](C)[C@@H](O[C@@H]2O[C@H](C)C[C@H](N(C)C)[C@H]2O)[C@](C)(OC)C[C@@H](C)C(=O)[C@H](C)[C@@H](O)[C@]1(C)O [CLARITHROMYCIN] : 3.8
CC(C)N1CCN(c2ccc(OCC3COC(Cn4cncn4)(c4ccc(Cl)cc4Cl)O3)cc2)CC1 (centres undefined) [TERCONAZOLE] : 0
O=C(O)P(=O)(O)O [FOSCARNET] : 121.1
COc1ccc(CC2c3cc(OC)c(OC)cc3CC[N+]2(C)CCC(=O)OCCCCCOC(=O)CC[N+]2(C)CCc3cc(OC)c(OC)cc3C2Cc2ccc(OC)c(OC)c2)cc1OC (centres undefined) : 0

Quick check: SGOT Increase - Index Value of CC(=O)NO [ACETOHYDROXAMIC ACID] ?
0

Quick one: SGOT Increase - Index Value for CO[C@@]1(NC(=O)C2SC(=C(C(N)=O)C(=O)O)S2)C(=O)N2C(C(=O)O)=C(CSc3nnnn3C)CS[C@@H]21 (some centres undefined) [CEFOTETAN] ?
0

====

- System: Hepatotoxicity
- Experiment: FDA HLAED, serum glutamic pyruvic transaminase (SGPT) increase
- Condition: human
Assay Endpoint: SGPT Increase - Index Value
I only need the number, thanks.

CCCN1C[C@H](CSC)C[C@@H]2c3cccc4[nH]cc(c34)C[C@H]21 [PERGOLIDE] : 3.9
CC(N)C12CC3CC(CC(C3)C1)C2 (configuration not stated) : 1.7
CC(=O)OCC1=C(C(=O)O)N2C(=O)[C@@H](NC(=O)CSc3ccncc3)[C@H]2SC1 : 0
COC(=O)C1=C(C)NC(C)=C(C(=O)OC)C1c1ccccc1[N+](=O)[O-] : 0.4
Clc1ccc(CSC(Cn2ccnc2)c2ccc(Cl)cc2Cl)cc1 (configuration not stated) : 0

Test system Hepatotoxicity; read-out SGPT Increase - Index Value; what value for Cc1nnc2n1-c1ccc(Cl)cc1C(c1ccccc1Cl)=NC2 ?
0

Record lookup: for Hepatotoxicity, what SGPT Increase - Index Value belongs to CCn1nc(C(=O)O)c(=O)c2cc3c(cc21)OCO3 ?
15.1

SGPT Increase - Index Value of O=c1[nH]cnc2c1ncn2[C@H]1CC[C@@H](CO)O1 on Hepatotoxicity?
12.9

For Hepatotoxicity, provide SGPT Increase - Index Value of CO[C@@]1(NC(=O)Cc2cccs2)C(=O)N2C(C(=O)O)=C(COC(N)=O)CS[C@@H]21 please.
0

Give SGPT Increase - Index Value (Hepatotoxicity) of the following compound: Cc1cn([C@H]2C=C[C@@H](CO)O2)c(=O)[nH]c1=O
9.7

====

- System: Hepatotoxicity
- Experiment: FDA HLAED, lactate dehydrogenase (LDH) increase
- Condition: human
Assay Endpoint: LDH Increase - Number of Reports

Worked cases, LDH Increase - Number of Reports given:
COc1ccc(C(=O)Nc2ccccc2CCC2CCCCN2C)cc1 (stereo not drawn) [ENCAINIDE] : >= 4
CC1=C(C(=O)O)N2C(=O)[C@@H](NC(=O)[C@H](N)c3ccc(O)cc3)[C@H]2SC1 : < 4
C[C@@H]1C[C@H]2[C@@H]3C[C@H](F)C4=CC(=O)C=C[C@]4(C)[C@@]3(F)[C@@H](O)C[C@]2(C)[C@@]1(O)C(=O)SCF : < 4
CCCC1O[C@@H]2C[C@H]3[C@@H]4CCC5=CC(=O)C=C[C@]5(C)[C@H]4[C@@H](O)C[C@]3(C)[C@]2(C(=O)CO)O1 (stereo partly drawn) [BUDESONIDE] : < 4
FC(F)OC(F)C(F)(F)F (stereo not drawn) : < 4

Query: LDH Increase - Number of Reports; subject: CC(C)C(=O)Nc1ccc([N+](=O)[O-])c(C(F)(F)F)c1 [FLUTAMIDE]
>= 4

Given the entry COc1cc(CC2c3c(cc(OC)c(OC)c3OC)CC[N+]2(C)CCCOC(=O)CCC(=O)OCCC[N+]2(C)CCc3cc(OC)c(OC)c(OC)c3C2Cc2cc(OC)c(OC)c(OC)c2)cc(OC)c1OC.[Cl-].[Cl-] (stereo not drawn) [DOXACURIUM CHLORIDE] , report its measured LDH Increase - Number of Reports.
< 4

LDH Increase - Number of Reports lookup needed for C[C@H](CCC(=O)O)[C@H]1CC[C@H]2[C@@H]3[C@H](O)C[C@@H]4C[C@H](O)CC[C@]4(C)[C@H]3CC[C@]12C , thanks.
< 4

Looking for the measured LDH Increase - Number of Reports of CCCNCC(O)COc1ccccc1C(=O)CCc1ccccc1 (stereo not drawn) , can you help?
< 4

Each recorded value in this set is attributed to ChEMBL document CHEMBL1697781.
